test system: M19-MEL; assay: NCI tumour cell line growth inhibition, 48 h
Active and inactive are the calls of the source. Rule as the data show it: active = GI50 up to about 1.1 µM and inactive = higher.
quantityKind: GI50

q: Identify measured GI50 corresponding to `COc1ccc(NC(=O)c2cc(OC)c(OC)c(OC)c2)cc1`
a: 41.7 µM (inactive)

q: Identify measured GI50 corresponding to CCC1C2C=CC(CC2)N1S(=O)(=O)c1ccc(C)cc1 (configuration not stated)
a: 31.4 µM (inactive)

q: Identify measured GI50 corresponding to `C[P+](C)(CC(F)(F)F)c1ccccc1`
a: > 100 µM (inactive)

q: Identify measured GI50 corresponding to `N/N=c1\c2ccccc2c2ccc3c4ccccc4/c(=N\N)c3c12`
a: > 100 µM (inactive)

q: Identify measured GI50 corresponding to `O=S(=O)(Cc1ccccc1)SCc1ccccc1`
a: 22.2 µM (inactive)

q: Identify measured GI50 corresponding to C=C(C)C(=O)OC1CC2=CC(CC3(C)OC3C3OC(=O)C(=C)C13)OC2=O (configuration not stated)
a: 6.62 µM (inactive)

q: Identify measured GI50 corresponding to `O=C1NCCCC12CCCNC2=O`
a: > 100 µM (inactive)

q: Identify measured GI50 corresponding to CN1CCC(O)C(CNC23CC4CC(CC(C4)C2)C3)C1 (configuration not stated)
a: > 100 µM (inactive)

q: Identify measured GI50 corresponding to Cc1ccc(S(=O)OCc2c(C)c(C)c(COS(=O)c3ccc(C)cc3)c(C)c2C)cc1 (configuration not stated)
a: > 100 µM (inactive)

q: Identify measured GI50 corresponding to CC(=O)OCc1nnn2c1C(OC(C)=O)CC2 (configuration not stated)
a: > 100 µM (inactive)

q: Identify measured GI50 corresponding to O=C1CCCC1NC(=O)C(F)(F)F (configuration not stated)
a: > 100 µM (inactive)

q: Identify measured GI50 corresponding to COc1ccc(C2C(Cl)C(=O)N2NC(=O)c2ccc(NC(C)=O)cc2)cc1OC (configuration not stated)
a: > 100 µM (inactive)

###

Answer each item with its documented GI50.
test system: U-251; assay: NCI tumour cell line growth inhibition, 48 h
Activity calls are given as the source filed them. Rule as the data show it: active = GI50 up to about 1.1 µM and inactive = higher.

q: Identify measured GI50 corresponding to `C/C(=N\n1c(Cc2ccccc2)n[nH]c1=O)c1ccc([N+](=O)[O-])cc1`
a: > 100 µM (inactive)

q: Identify measured GI50 corresponding to C/C(=C/CC[C@](C)(OC1OC(CO)C(O)C(O)C1O)[C@H]1CC[C@]2(C)[C@@H]1CC[C@@H]1[C@@]3(C)CC[C@H](O)C(C)(C)[C@@H]3C[C@H](O)[C@]12C)CO (stereo partly drawn)
a: 13.6 µM (inactive)

q: Identify measured GI50 corresponding to O=C(CC(O)(C(F)(F)F)C(F)(F)F)C(c1ccccc1)C(O)(C(F)(F)F)C(F)(F)F (stereo not drawn)
a: 5.45 µM (inactive)

q: Identify measured GI50 corresponding to `COc1ccc(NC(=O)C(=O)Cc2ccc([N+](=O)[O-])c([N+](=O)[O-])c2CC(=O)C(=O)Nc2ccc(OC)cc2OC)c(OC)c1`
a: > 100 µM (inactive)

q: Identify measured GI50 corresponding to O=C(COc1ccc(OCC(=O)NNC2=NC(c3cc(F)c(Cl)cc3Cl)CS2)c(Cl)c1)NNC1=NC(c2cc(F)c(Cl)cc2Cl)CS1 (stereo not drawn)
a: 14.4 µM (inactive)

q: Identify measured GI50 corresponding to c1nncn1C12C3C4C5C3C1C5C42 (stereo not drawn)
a: > 100 µM (inactive)

q: Identify measured GI50 corresponding to `CN1Cc2ccccc2S(=O)(=O)n2cccc2C1=O`
a: > 100 µM (inactive)

q: Identify measured GI50 corresponding to `C#CCOCn1cnc2ncnc(Cl)c21`
a: > 100 µM (inactive)

###

tested on: OVCAR-8; experiment: NCI tumour cell line growth inhibition, 48 h
Activity calls are given as the source filed them. No stated cut-off is given here; in the data, active = GI50 up to about 1.1 µM and inactive = higher.
quantityKind: GI50

q: Identify measured GI50 corresponding to CC(=O)OCc1nnn2c1C(OC(C)=O)CC2 (stereo unspecified)
a: > 100 µM (inactive)

q: Identify measured GI50 corresponding to `CC(=O)Oc1c2oc3cc(O)c(O)cc3c2c(OC(C)=O)c2oc3cc(O)c(O)cc3c12`
a: 20.2 µM (inactive)

q: Identify measured GI50 corresponding to c1ncn(C23C4C5C6C4C2C6C53)n1 (stereo unspecified)
a: > 100 µM (inactive)

q: Identify measured GI50 corresponding to `CC(=O)Nc1cc2c3c(c1)CCCN3CCC2`
a: > 100 µM (inactive)

q: Identify measured GI50 corresponding to `COc1ccc2c3c([nH]c2c1)-c1nc2ccccc2c(=O)n1CC3`
a: > 25 µM (inactive)

q: Identify measured GI50 corresponding to COc1ccc(C#CCC(OC2OC(CO)C(O)C(O)C2O)C(O)c2ccc(OC)c(OC)c2)cc1OC (stereo unspecified)
a: > 100 µM (inactive)

q: Identify measured GI50 corresponding to `N#CCN1CCOCCOCCN(CC#N)CCOCCOCC1`
a: > 100 µM (inactive)

q: Identify measured GI50 corresponding to `NCc1ccc(-c2ccc(-c3ccc(-c4ccc(CN)s4)s3)s2)s1`
a: > 100 µM (inactive)

q: Identify measured GI50 corresponding to CCCCCCCCCCCCC(O)[C@H]1CC[C@H](C(O)CCCCCC(=O)CCCCC2CC(C(C)=O)C(=O)O2)O1 (stereo partly specified)
a: 8.97 µM (inactive)

q: Identify measured GI50 corresponding to CC1(CO)OC(n2cnc3cncnc32)CC1O (stereo unspecified)
a: > 100 µM (inactive)

q: Identify measured GI50 corresponding to `O=C(/C=C/c1ccc(O)c(O)c1)OCCOC(=O)/C=C/c1ccc(O)c(O)c1`
a: 32.2 µM (inactive)

q: Identify measured GI50 corresponding to CC(=O)OC1COC(N2C(=O)/C(=N\Nc3ccc([N+](=O)[O-])cc3)c3cc(Br)c([N+](=O)[O-])cc32)C(OC(C)=O)C1OC(C)=O (stereo unspecified)
a: > 100 µM (inactive)

q: Identify measured GI50 corresponding to `CCOC(=O)Nn1c(CC#N)nnc1Cc1ccccc1`
a: > 100 µM (inactive)

q: Identify measured GI50 corresponding to `Oc1cc(-c2cccc(F)c2)nc2cc3c(cc12)OCO3`
a: 0.0347 µM (active)

q: Identify measured GI50 corresponding to `O=[N+]([O-])c1cc(C(F)(F)F)cc2c1SC1=Nc3ccccc3CN12`
a: > 100 µM (inactive)

q: Identify measured GI50 corresponding to `Cc1ccc(-c2nc(N/N=C/c3ccc(O)cc3)c3ccccc3n2)cc1`
a: 22.9 µM (inactive)

q: Identify measured GI50 corresponding to `O=C(O)CN(c1ccccc1)S(=O)(=O)c1ccccc1[N+](=O)[O-]`
a: > 100 µM (inactive)

q: Identify measured GI50 corresponding to CC1CCC[P+](Cc2ccccc2)(c2ccccc2)CC1 (stereo unspecified)
a: 59.8 µM (inactive)

q: Identify measured GI50 corresponding to Cc1ccc(C)c(NC2=NC(=O)C(CC(=O)Nc3ccc(Cl)cc3Cl)S2)c1 (stereo unspecified)
a: 66.1 µM (inactive)

q: Identify measured GI50 corresponding to `COc1ccc2n[se]nc2c1`
a: > 100 µM (inactive)

q: Identify measured GI50 corresponding to `CCOC(=O)C(C(=O)OCC)c1ccc([N+](=O)[O-])o1`
a: 5.24 µM (inactive)

q: Identify measured GI50 corresponding to Cc1cccc(NC(=O)C(=O)C(C(=O)c2ccccc2F)C2OC(=O)c3ccccc32)c1Cl (stereo unspecified)
a: 20.1 µM (inactive)

q: Identify measured GI50 corresponding to Fc1ccccc1C1SCC2=Nc3ccccc3CN21 (stereo unspecified)
a: > 100 µM (inactive)

q: Identify measured GI50 corresponding to `COc1ccc(NC(=O)C(=O)Cc2ccc([N+](=O)[O-])c([N+](=O)[O-])c2CC(=O)C(=O)Nc2ccc(OC)cc2OC)c(OC)c1`
a: > 100 µM (inactive)

q: Identify measured GI50 corresponding to `O=C1N[C@H]2c3c(Cl)sc(Cl)c3/C(=N/O)[C@H]2O1`
a: > 100 µM (inactive)

q: Identify measured GI50 corresponding to Cc1ccc(N2C(=O)N(c3ccc(C)cc3)C3(SC=NN3C)C2=O)cc1 (stereo unspecified)
a: > 100 µM (inactive)

q: Identify measured GI50 corresponding to `CCOC(=O)C(NC(=O)OC(C)(C)C)C(=O)OCC`
a: > 100 µM (inactive)

q: Identify measured GI50 corresponding to `CC(/C=C/c1ccccc1)=N\N=C(C)\C=C\c1ccccc1`
a: > 100 µM (inactive)

q: Identify measured GI50 corresponding to `Cc1ccc(/C=C/C(=O)c2cc(CN(C)C)c(O)c(CN(C)C)c2)cc1`
a: 21.3 µM (inactive)

q: Identify measured GI50 corresponding to `CC(=O)OC(C)(C)[C@H]1O[C@]23O[C@]1(C)C[C@@H](C)[C@@H]2[C@@]1(C)CC[C@@]24C[C@@]25CC[C@H](O[C@@H]2OC[C@@H](O)[C@H](O)[C@H]2O)C(C)(C)[C@@H]5CC[C@H]4[C@]1(C)[C@H]3O`
a: 10.8 µM (inactive)

q: Identify measured GI50 corresponding to `C/C(=N/O)c1cccc(Nc2nc3ccccc3c3[nH]c4ccccc4c23)c1`
a: 2.65 µM (inactive)

q: Identify measured GI50 corresponding to CN1CCN(CN2C(=O)C3C4C=CC(C3C2=O)C2C3C(=O)N(CN5CCN(C)CC5)C(=O)C3C42)CC1 (stereo unspecified)
a: 17.7 µM (inactive)

q: Identify measured GI50 corresponding to `Cc1nc(N)sc1C(=O)Nc1nc[nH]n1`
a: > 100 µM (inactive)

q: Identify measured GI50 corresponding to `CN(C)Cc1cc(/N=N/c2ccccc2Cl)cc(CN(C)C)c1O`
a: 45.5 µM (inactive)

q: Identify measured GI50 corresponding to N#CC1CCCC2SC(F)(F)C(F)(F)C12 (stereo unspecified)
a: > 100 µM (inactive)

q: Identify measured GI50 corresponding to CC(C)(C1=NC(C(C)(C)C)CO1)C1=N[C@@H](C(C)(C)C)CO1 (stereo partly specified)
a: > 100 µM (inactive)

q: Identify measured GI50 corresponding to Clc1ccc(Cc2nc3cc(Cl)c(Cl)cc3n2CC2CCCN3CCCCC23)cc1Cl (stereo unspecified)
a: 6.32 µM (inactive)

q: Identify measured GI50 corresponding to CCOC(=O)Nc1cc2c(c(N)n1)N=C(c1ccccc1)[C@H](C)N2 [MIVOBULIN ISETHIONATE]
a: < 0.0001 µM (active)

q: Identify measured GI50 corresponding to CC(=O)OCC1OC(NC(=S)Nn2c(=O)[nH]c3ccccc3c2=O)C(OC(C)=O)C(OC(C)=O)C1OC(C)=O (stereo unspecified)
a: > 100 µM (inactive)

q: Identify measured GI50 corresponding to `S=C1C=C(c2ccccc2)Sc2ccccc2N1`
a: > 100 µM (inactive)

q: Identify measured GI50 corresponding to `Cc1ccc(/C=C/C(=O)C(C)(C)CN2CCCCC2)cc1`
a: 2.81 µM (inactive)
